SYSTEM: Human Full Length PARG (Homo sapiens (Human), UniProt Q86W56)
Sequence (Q86W56 whole entry): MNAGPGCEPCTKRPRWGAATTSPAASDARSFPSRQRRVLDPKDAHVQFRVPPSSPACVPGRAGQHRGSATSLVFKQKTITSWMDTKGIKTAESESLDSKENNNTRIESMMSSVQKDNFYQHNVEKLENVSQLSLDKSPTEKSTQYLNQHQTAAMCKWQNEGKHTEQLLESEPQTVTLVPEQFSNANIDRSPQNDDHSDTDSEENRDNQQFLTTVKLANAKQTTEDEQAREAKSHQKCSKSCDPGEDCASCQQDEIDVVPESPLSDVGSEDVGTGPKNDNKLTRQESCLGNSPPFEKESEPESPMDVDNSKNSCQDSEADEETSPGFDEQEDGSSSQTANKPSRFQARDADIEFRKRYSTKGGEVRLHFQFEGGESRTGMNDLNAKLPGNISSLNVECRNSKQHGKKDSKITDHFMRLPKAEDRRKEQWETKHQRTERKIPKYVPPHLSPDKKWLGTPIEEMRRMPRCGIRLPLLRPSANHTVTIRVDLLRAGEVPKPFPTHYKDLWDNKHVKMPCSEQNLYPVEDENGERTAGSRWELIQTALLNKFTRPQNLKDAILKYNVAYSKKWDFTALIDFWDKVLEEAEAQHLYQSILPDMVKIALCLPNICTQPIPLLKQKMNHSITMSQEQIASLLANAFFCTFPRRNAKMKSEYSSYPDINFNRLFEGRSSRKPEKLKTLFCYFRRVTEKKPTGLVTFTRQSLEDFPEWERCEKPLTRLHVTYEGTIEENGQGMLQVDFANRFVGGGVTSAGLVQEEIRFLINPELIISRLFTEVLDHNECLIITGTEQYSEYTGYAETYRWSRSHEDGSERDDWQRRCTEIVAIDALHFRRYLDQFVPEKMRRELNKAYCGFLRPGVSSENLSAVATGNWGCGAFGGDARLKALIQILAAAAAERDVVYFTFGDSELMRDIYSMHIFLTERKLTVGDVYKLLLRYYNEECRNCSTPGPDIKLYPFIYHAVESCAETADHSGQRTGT
METHOD DESCRIPTION: PARG enzyme assay (TR-FRET)
Format: biochemical
CONDITION LABEL: read-out: PARG Biochem IC50 Geomean
QUANTITY: IC50 (nM)
Provide the reading as a plain figure in nM.

COMPOUND SMILES	NUMERIC VALUE
Cc1cc(Cn2c(=O)c3cc(S(=O)(=O)NC4(C)CC4)ccc3n(CCCN(C)C)c2=O)on1	404
Cn1cc(Cn2c(=O)c3cc(S(=O)(=O)NC4(C)CC4)ccc3n(CCN3CCCC3=O)c2=O)cn1	4220
Cn1nccc1Cn1c(=O)n(C)c(=O)c2cc(S(=O)(=O)NC3(C)CC3)ccc21	1230

Please report the recorded IC50 for `Cc1nc(C)c(Cn2c(=O)c3cc(S(=O)(=O)NC4(C)CC4)ccc3n(C)c2=O)s1` .
907

---

Tested on: PARG in HeLa cell line
METHOD DESCRIPTION: PARG cell assay (PAR chain immunofluorescence after MMS)
Assay type: cell-based
CONDITION LABEL: HeLa cells, MMS treatment; read-out: PARG Cell IC50
QUANTITY: IC50 (nM)
Provide the reading as a plain figure in nM.

Examples with their reported IC50 follow.
COMPOUND	IC50 [nM]
Cc1cc(Cn2c(=O)c3cc(S(=O)(=O)NC4(C)CC4)ccc3n(CC3CC(C)(C)C3)c2=O)on1 [Example 477]	403
Cn1cc(Cc2cc3cc(S(=O)(=O)NC4(C)CC4)ccc3n(C)c2=O)cn1 [Example 491]	1790

Please report the recorded IC50 for CCn1c(=O)n(Cc2nnc(C)s2)c(=O)c2cc(S(=O)(=O)NC3(C)CC3)ccc21 [Example 614] .
122

Try this compound too: C#CCn1c(=O)n(Cc2cnc(C)s2)c(=O)c2cc(S(=O)(=O)NC3(C#N)CC3)ccc21 [Example 403]
265

Try this compound too: Cn1ncc(Cn2c(=O)c3cc(S(=O)(=O)NC4(CF)CC4)ccc3n(C)c2=O)n1 [Example 626]
1810

Try this compound too: Cn1cc(Cn2c(=O)c3cc(S(=O)(=O)NC4(CF)CC4)ccc3n(CC3CC(F)(F)C3)c2=O)cn1 [Example 444]
90

Try this compound too: Cc1cc(Cn2c(=O)n(Cc3cnn(C)c3)c(=O)c3cc(S(=O)(=O)NC4(C(F)(F)F)CC4)ccc32)n(C)n1 [Example 485]
4070

---

SYSTEM: Human Full Length PARG (Homo sapiens (Human), UniProt Q86W56)
METHOD DESCRIPTION: PARG enzyme assay (TR-FRET)
Assay type: biochemical
CONDITION LABEL: read-out: PARG Biochem IC50 Geomean
Listing of recorded IC50 by entry.
# number then unit; no other words

Examples with their reported IC50 follow.
COMPOUND	IC50
Cc1cc(Cn2c(=O)c3cc(S(=O)(=O)NC4(C)CC4)ccc3n(CC3CCN(C)C3)c2=O)on1 (centres unmarked)	332 nM
Cn1c(=O)n(CC(=O)c2ccc(N3CCCC3)cc2)c(=O)c2cc(S(=O)(=O)NC3(C)CC3)ccc21	1510 nM
Cc1nc(C(F)(F)F)c(Cn2c(=O)c3cc(S(=O)(=O)NC4(C)CC4)ccc3n(C)c2=O)s1	725 nM
Cn1c(=O)c(=O)n(Cc2ccc(F)cc2)c2ccc(S(=O)(=O)NC3(C)CC3)cc21	3360 nM
Cc1nc(C)c(Cn2c(=O)c3cc(S(=O)(=O)NC4(C)CC4)ccc3n(C)c2=O)o1	1330 nM
Cc1nc2ccc(S(=O)(=O)NC3(C)CC3)cc2c(=O)[nH]1	6960 nM
Cc1cc(Cn2c(=O)n(Cc3c(C)noc3C)c(=O)c3cc(S(=O)(=O)NC4(C)CC4)ccc32)n(C)n1	131 nM

Pending compound:
Please report the recorded IC50 for Cn1c(=O)c2cc(S(=O)(=O)NC3(C)CC3)ccc2n(CC2CCCCO2)c1=O (centres unmarked) .
1550 nM

---

SYSTEM: Human Full Length PARG (Homo sapiens (Human), UniProt Q86W56)
METHOD DESCRIPTION: PARG enzyme assay (TR-FRET)
Type: biochemical
CONDITION LABEL: read-out: PARG Biochem IC50 Geomean
QUANTITY: pIC50
pIC50 field: float, defined as -log10 of concentration (mol/L).

COMPOUND SMILES	pIC50
CCn1c(=O)c2cc(S(=O)(=O)NC3(C)CC3)ccc2n(CC)c1=O	5.83
COc1cccc(Cn2c(=O)n(Cc3cc(C)no3)c(=O)c3cc(S(=O)(=O)NC4(C)CC4)ccc32)c1	6.60
CCC1(NS(=O)(=O)c2ccc3c(c2)c(=O)n(Cc2cc(C)no2)c(=O)n3C)CC1	5.52
COc1ccccc1Cn1c(=O)n(C)c(=O)c2cc(S(=O)(=O)NC3(C)CC3)ccc21	5.49
CC1(NS(=O)(=O)c2ccc3c(c2)[nH]c(=O)c(=O)n3Cc2ccc(F)cc2)CC1	5.29

Please report the recorded pIC50 for `COc1cccc(Cn2c(=O)n(CC#N)c(=O)c3cc(S(=O)(=O)NC4(C)CC4)ccc32)c1` .
6.33

Try this compound too: `Cn1cc(Cn2c(=O)c3cc(S(=O)(=O)NC4(C)CC4)c(F)cc3n(CC3COC3)c2=O)cn1`
7.18

Try this compound too: `Cn1cc(Cn2c(=O)c3cc(S(=O)(=O)NC4(C#N)CC4)ccc3n(Cc3cnn(C)c3)c2=O)cn1`
7.36

Try this compound too: `Cn1cc(Cn2c(=O)c3cc(S(=O)(=O)NC4(C)CC4)ccc3n(CCN3CCOCC3)c2=O)cn1`
7.01

Try this compound too: `Cc1ncc(Cn2c(=O)[nH]c3ccc(S(=O)(=O)NC4(C#N)CC4)cc3c2=O)s1`
6.43

Try this compound too: `Cn1c(=O)n(CC2CC2)c(=O)c2cc(S(=O)(=O)NC3(C)CC3)ccc21`
5.33

---

Test system: PARG in HeLa cell line
METHOD DESCRIPTION: PARG cell assay (PAR chain immunofluorescence after MMS)
Type: cell-based
CONDITION LABEL: HeLa cells, MMS treatment; read-out: PARG Cell IC50
QUANTITY: log10 of IC50 (log10 of the value in nM)
Please note: log10 values; quantity IC50; unit nM.

Examples with their reported log10 of IC50 follow.
COMPOUND SMILES	log10 of IC50
Cc1nnc(Cn2c(=O)c3cc(S(=O)(=O)NC4(C)CC4)ccc3n(C)c2=O)s1	2.54
Cc1cc(Cn2c(=O)n(Cc3cnn(C)c3)c(=O)c3cc(S(=O)(=O)NC4(CF)CC4)ccc32)on1	1.87
CC(C)Cn1c(=O)n(Cc2cnn(C)c2)c(=O)c2cc(S(=O)(=O)NC3(CF)CC3)ccc21	1.96
Cn1cc(Cn2c(=O)c3cc(S(=O)(=O)NC4(CF)CC4)ccc3n(Cc3cccc(C#N)n3)c2=O)cn1	2.59
C#CCn1c(=O)n(Cc2cnn(C)c2)c(=O)c2cc(S(=O)(=O)NC3(CF)CC3)ccc21	1.70

Please report the recorded log10 of IC50 for `Cc1cc(Cn2c(=O)n(Cc3cnn(C)c3)c(=O)c3cc(S(=O)(=O)NC(C)(C)C)ccc32)n(C)n1` .
3.18

Try this compound too: `Cn1cc(Cn2c(=O)c3cc(S(=O)(=O)NC4(CF)CC4)ccc3n(Cc3nncn3C)c2=O)cn1`
4.41

---

Test system: PARG in HeLa cell line
METHOD DESCRIPTION: PARG cell assay (PAR chain immunofluorescence after MMS)
Format: cell-based
CONDITION LABEL: Homo sapiens; HeLa cells, MMS 50 μg/mL; read-out: PARG Cell IC50 Geomean
Listing of recorded IC50 by entry.
Provide the reading as a plain figure in nM.

Examples with their reported IC50 follow.
COMPOUND SMILES	SYSTEM	IC50 [nM]
Cn1cc(Cn2c(=O)c3cc(S(=O)(=O)NC4(C#N)CC4)ccc3n(CC#N)c2=O)cn1	PARG in HeLa cell line	16600
Cc1noc(C)c1Cn1c(=O)c2cc(S(=O)(=O)NC3(C)CC3)ccc2n(Cc2ccc(F)cc2)c1=O	PARG in HeLa cell line	146

Please report the recorded IC50 for `Cc1cc(Cn2c(=O)n(Cc3cnn(C)c3)c(=O)c3cc(S(=O)(=O)NC4(C)CC4)ccc32)on1` .
77

Try this compound too: `Cc1nc(C)c(Cn2c(=O)n(C)c(=O)c3cc(S(=O)(=O)NC4(C#N)CC4)ccc32)s1`
646

---

SYSTEM: Human Full Length PARG (Homo sapiens (Human))
METHOD DESCRIPTION: PARG enzyme assay (TR-FRET)
Format: biochemical
CONDITION LABEL: read-out: PARG Biochem IC50
Listing of recorded pIC50 by entry.
pIC50 field: float, defined as -log10 of concentration (mol/L).

Examples with their reported pIC50 follow.
COMPOUND SMILES	pIC50
Cn1c(=O)n(CC(=O)c2ccccc2)c(=O)c2cc(S(=O)(=O)NC3(C)CC3)ccc21	5.79
Cn1cc(Cn2c(=O)c3cc(S(=O)(=O)NC4(CF)CC4)ccc3n(Cc3cccc(F)n3)c2=O)cn1	6.80
Cc1cc(Cn2c(=O)c3cc(S(=O)(=O)NC4(C)CC4)ccc3n(CCF)c2=O)on1	6.39

Pending molecule:
Please report the recorded pIC50 for `COCCOCCn1c(=O)n(Cc2cnn(C)c2)c(=O)c2cc(S(=O)(=O)NC3(CF)CC3)ccc21` .
6.61
